Task for the reader: assign each of the following sequences its reported protein stability index.
- assay.summary: protein stability index of a GFP-peptide fusion (yeast GPS) (PSI 1-4); higher = more stable; sorted into four equal gates, so the index is relative within each strain
- condition.context: pdr5∆
// keep it numeric: no unit symbol after the value

Entry DRFKYRSVDRAGRKFKS [POP4] has what protein stability index?
3.24

Entry SLLESGSEILGDLKLQV [RPO21] has what protein stability index?
3.58

Entry GLVHDLCHPKKEKYGLA [SMC1] has what protein stability index?
2.84

Entry FKATHILDFGPGGASGL [FAS1] has what protein stability index?
3.43

Entry PESQGQHEQQKQQEQLE [YMR153W/NUP53] has what protein stability index?
3.37

Entry SRNKALELNLSVLHSWV [YJL039C/NUP192] has what protein stability index?
2.5

Entry PSLNPIPHFIDNNSSLN [PRP8] has what protein stability index?
2.52

Entry ERDEQKRAEKKAKERLQ [SNF2] has what protein stability index?
3.45

Entry MKTQRFVSNMGFDIQKS [SIR4] has what protein stability index?
2.24

Entry QTDAIKSDEAKWKPVLS [RPN5] has what protein stability index?
2.99

Entry KSMKYVKKILPLYARYI [ECM29] has what protein stability index?
1.19

Entry PSKLVITKLHLDKDRKA [RPL26A] has what protein stability index?
1.75

Entry GNSESKVEKGVNIEPFN [LIN1] has what protein stability index?
3.67

Entry DTYRTLMEEIESLKKEL [YIL149C/MLP2] has what protein stability index?
3.36

Entry RKVVFPFQLDVADMLTP [UBP6] has what protein stability index?
2.02

Entry NTDLKDIIQGNPLMYSG [PCI8] has what protein stability index?
3.13

Entry SESGSKLNVDQFISSRQ [POP1] has what protein stability index?
3.37

Entry LKKFRESLVHSALCILK [BRR2] has what protein stability index?
2.1

Entry SVKEDVKNNQELDQEYR [SMC4] has what protein stability index?
3.53

Entry ASMLGLFVFTEGWPKFQ [QCR10] has what protein stability index?
1.96

Entry ECSKDMKEDGLSFVDIV [SIR4] has what protein stability index?
3.39

Entry ENCLNNDPEILKKIASI [SWI1] has what protein stability index?
2.08

Entry ETHETNISNAKLANFFS [YAR002W/NUP60] has what protein stability index?
3.15

Entry RLTGSLLAHKVADEEAN [RPC37] has what protein stability index?
1.32

Entry KLLGIGDIESLFEQLQT [SRP54] has what protein stability index?
2.15

Entry HTSSSDGNNEIFTCQIM [RPN4] has what protein stability index?
2.89

Entry FEYLATVMYQRRSKMNP [PRE4] has what protein stability index?
2.72

Entry LKRNRIRNARSIRAEAV [POP1] has what protein stability index?
2.44

Entry NVYRVTVHKTFEGNVAT [PRP8] has what protein stability index?
3.16

Entry SSFTFGSTTIEKKNDEN [YLR335W/NUP2] has what protein stability index?
2.49

Measured values drawn from the supplement of paper PMC9732359 for this set.
